System: Human Gal3 peptides
assay remarks: Gal3 peptide binding ELISA (Example 8)
applied conditions: antibody 5 μg/mL
endpoint label: binding to any of the tested Gal3 peptides

Recorded results for 4 molecules are shown here.
molecule | result
849.5H1: anti-Gal3 antibody (antibody, V domains shown) VH: QVQLKESGPVLVAPSQSLSITCTVSGFSLTSYGIHWVRQPPGKGLEWLGVIWAGGSTNYNSALMSRLSISKDNSKSQVFLKMNSLQIDDTAMYYCAKPPHDYDQAWFAYWGQGTLITVSA VL: DIQMNQSPSSLSASLGDTITITCHASQNINVWLSWYQQKPGNIPKLLIYQASNLHTGVPSRFSGRGSGTGFTLTISSLQPEDIATYYCQQGQSSPFTFGSGTKLEIK | not found to bind
849.2D7: anti-Gal3 antibody (antibody, V domains shown) VH: QVQLQQSGPQLVRPGASVKISCKASGYSFTNYWMHWVKQRPGQGLEWIGMIDPSDSETRLNQKFKDKATLTVDKSSSTAYMQLSSPTSEDSAVYYCATGRPDYWGQGTTLTVSS VL: DIVMTQSHKFMSTSVGDRVSITCKASQDVSTAVAWYQQKPGQSPKLLIYWASTRHTGVPDRFTGSGSGTDYTLTISSVQAEDLALYYCQQHYSTPYTFGGGTKLEIK | not found to bind
847.21B11: anti-Gal3 antibody (antibody, V domains shown) VH: QVQLKQSGPGLVAPSQSLSITCTVSGFSLTSYGVHWVRQPPGKGLEWLGIIWAGGSTNYNPALMSRLSISKDKSKSQVFLKMNSLKTDDTAMYYCARDRASLLRPGAMDYWGQGTSVTVSS VL: DIVMTQSQKFMSTSVGDRVSVTCKASQNVGINVAWYQQKPGQSPKALIYSASYRYSGVPDRFTGSGSGTDFTLTISNVQSEDLAEYFCQQYNSYPYTFGGGTKLEMK | not found to bind
847.20H7: anti-Gal3 antibody (antibody, V domains shown) VH: QVQLQQSGAELVRPGASVNLSCKASGYTFTNYWMNWVKQRPGQGLEWVGMIDPSDSETHYNQMFKDKATLTIDKSSSIAYMQLSSLTSEDSAVYYCARWGAMDYWGQGTSVTVSS VL: DIVMTQSHKIMSTSVGDRVSITCKASQDVSTTVAWFQQKPGQSPKLLLYWASTRHTGVPDRFTGSGSGTDYTLTISSVQAEDLALYYCQQHYSPPFTFGSGTKLEIK | not found to bind

Now for another entry.
Given the molecule 847.4D3: anti-Gal3 antibody (antibody, V domains shown) VH: EVQLVESGGGLVKPGGSLKLSCAASGFTFSSYAMSWVRQTPEKRLEWVASISSGDSPYYPDSVKGRFTISRDNARNILYLQMSSLRSEDTAMYYCTRFTTVVEMDYWGQGTSVTVSS VL: DVVMTQTPKFLPITAEDRVTITCKASQSVSNEVAWYQQKPGQSPKLLIYYASNRYTGVPDRFTGSGSGTDFTFTIRSVQLEDLAVYFCQQHYSSPWTFGGGTKLEIK , write its reported binding to any of the tested Gal3 peptides. not found to bind
